# measured-target: PdeA (Caulobacter vibrioides, UniProt A0A0H3CDG5)
# Sequence (A0A0H3CDG5 1-555): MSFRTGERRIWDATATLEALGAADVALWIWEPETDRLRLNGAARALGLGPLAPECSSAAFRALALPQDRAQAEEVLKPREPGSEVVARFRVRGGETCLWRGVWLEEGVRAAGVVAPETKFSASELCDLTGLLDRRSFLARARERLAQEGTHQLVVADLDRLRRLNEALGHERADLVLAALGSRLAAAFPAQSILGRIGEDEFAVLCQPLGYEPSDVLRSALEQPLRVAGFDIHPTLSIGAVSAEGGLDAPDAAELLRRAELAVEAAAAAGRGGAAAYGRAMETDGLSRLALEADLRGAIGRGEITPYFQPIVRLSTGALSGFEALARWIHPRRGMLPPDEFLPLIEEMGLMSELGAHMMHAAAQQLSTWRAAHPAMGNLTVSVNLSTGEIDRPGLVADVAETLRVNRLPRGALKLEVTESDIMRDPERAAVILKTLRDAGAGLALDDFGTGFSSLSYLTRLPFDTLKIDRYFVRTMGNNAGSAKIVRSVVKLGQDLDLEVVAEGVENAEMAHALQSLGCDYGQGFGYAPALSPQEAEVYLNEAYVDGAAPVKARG
# run-description: activation of purified PdeA phosphodiesterase, c-di-GMP turnover read with cdGreen2, GTP dose-response
# Format: biochemical
measured-parameter: Kd

Identify measured Kd associated with Nc1nc2c(ncn2[C@@H]2O[C@H](COP(=O)(O)OP(=O)(O)OP(=O)(O)O)[C@@H](O)[C@H]2O)c(=O)[nH]1
~3.4 µM
